meta.source: patent US6800637B2

Tgt: cloned human 5HT1A receptors (Homo sapiens)
Construct: expressed in transfected cells
Sequence (P08908 1-422): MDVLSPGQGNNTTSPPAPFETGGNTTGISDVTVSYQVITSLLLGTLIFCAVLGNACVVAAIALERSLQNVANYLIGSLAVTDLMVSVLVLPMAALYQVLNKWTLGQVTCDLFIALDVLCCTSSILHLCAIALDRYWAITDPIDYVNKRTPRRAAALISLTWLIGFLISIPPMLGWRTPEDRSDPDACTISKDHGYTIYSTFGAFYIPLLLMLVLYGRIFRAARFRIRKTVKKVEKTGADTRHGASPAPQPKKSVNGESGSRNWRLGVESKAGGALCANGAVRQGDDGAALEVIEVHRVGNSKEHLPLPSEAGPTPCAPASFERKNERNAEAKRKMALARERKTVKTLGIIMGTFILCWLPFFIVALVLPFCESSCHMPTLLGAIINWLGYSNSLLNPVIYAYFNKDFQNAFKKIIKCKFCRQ
Test: 35S-GTPγS binding assay, membranes containing cloned human 5HT1A receptors
Assay type: biochemical
Measurement parameters: given as EC50, read-out: 5-HT1A Function EC50
Observable: EC50

molecule=CCN(CCCCc1coc2ccccc12)C[C@H]1COc2ccc3nc(C)ccc3c2O1 observable=EC50 readout_value="526 nM"
